Let's look at some compounds and their measured IC50.
measurement description: microbe, parasite or virus in culture
condition notes: Mycobacterium tuberculosis, 72 h, read-out: pIC50 (converted)
Kindly provide the numeric value in µM only, without the unit symbol.

Below, 2 compounds whose answers are already recorded.
[[record]]
compound = "CCCc1nnc(N2CCC3(CC2)OCC(C)O3)s1 (configuration not stated)"
readout_unit = "µM"
reading = 34.3

[[record]]
compound = "O=C(Nc1ccc(Cl)cn1)c1ccncc1"
readout_unit = "µM"
reading = 304


Record summary for O=C(CSCCO)Nc1ncc(-c2ccccc2)s1 : reported IC50 = 174

Record summary for CC(=O)N1CCCC(c2ccc(Cc3ccccc3)cn2)C1 (configuration not stated) : reported IC50 = 15.3
